Test: Mouse pharmacokinetics, IV and oral administration
Type: in vivo
Conditions: male, C57BL/6, mouse, plasma, iv, 2.69 mg/kg, male C57BL/6 mice, IV 2.69 mg/kg, 0.5 h; read-out: Plasma Concentration, Individual
Property Measured: concentration at 0.5 h (µM)
# number only, unit µM dropped from output

Qu. So what's the measured concentration at 0.5 h for this one? Nc1nccc(-c2c(-c3ccc(F)cc3)ncn2C2CCC(F)(F)CC2)n1 [ZH3-138]
Ans. 4.01

----------
Assay: Mouse pharmacokinetics, IV and oral administration
Format: in vivo
Details: male, C57BL/6, mouse, plasma, po, 8.96 mg/kg, male C57BL/6 mice, oral 8.96 mg/kg, 24 h; read-out: Plasma Concentration, Individual
Property Measured: concentration at 24 h (µM)
# number only, unit µM dropped from output

Qu. So what's the measured concentration at 24 h for this one? Nc1nccc(-c2c(-c3ccc(F)cc3)ncn2C2CCC(F)(F)CC2)n1
Ans. 0.0513
